# PROCEDURE SUMMARY: Pravastatin pharmacokinetics, 40 mg single oral dose, at baseline and at bulevirtide steady state
# RUN PARAMETERS: human, plasma, oral, 40 mg, Cmax, baseline; all participants without *5/*15 and *15/*15
PROPERTY LABEL: Cmax (ng/mL)
Numbers only, in ng/mL.

-- ask What Cmax value was documented for this compound, `CC[C@H](C)C(=O)O[C@H]1C[C@H](O)C=C2C=C[C@H](C)[C@H](CC[C@@H](O)C[C@@H](O)CC(=O)O)[C@H]21` ?
-- reply 83.1

###

# PROCEDURE SUMMARY: Pravastatin pharmacokinetics, 40 mg single oral dose, at baseline and at bulevirtide steady state
# RUN PARAMETERS: human, plasma, oral, Cmax, at bulevirtide steady state; all participants without *5/*15 and *15/*15
PROPERTY LABEL: Cmax (ng/mL)
Give bare numbers, in ng/mL.

-- ask What Cmax value was documented for this compound, `CC[C@H](C)C(=O)O[C@H]1C[C@H](O)C=C2C=C[C@H](C)[C@H](CC[C@@H](O)C[C@@H](O)CC(=O)O)[C@H]21` ?
-- reply 122

###

# PROCEDURE SUMMARY: Pravastatin pharmacokinetics, 40 mg single oral dose, at baseline and at bulevirtide steady state
# RUN PARAMETERS: human, plasma, po, 40 mg, AUC0–∞, pravastatin 40 mg single oral dose, baseline; all participants N = 19; geometric mean (95% CI)
# Procedure: The trial was carried out between 19/07/2018 and 23/11/2018 at the Clinical Research Unit of the Department of Clinical Pharmacology and Pharmacoepidemiology (Heidelberg University Hospital, Germany, certified according to DIN EN ISO 9001:2015). […] Samples were centrifuged at 3600 g and 4°C for 10 min, and plasma was separated and stored at ≤ −20°C until analysis. […] The quantification of midazolam plasma concentration was based on an previously reported UPLC-MS/MS assay ([Burhenne et al., 2012]). […]
PROPERTY LABEL: AUC(0-inf) (ng·h/mL)
Numbers only, in ng·h/mL.

-- ask What AUC(0-inf) value was documented for this molecule, `CC[C@H](C)C(=O)O[C@H]1C[C@H](O)C=C2C=C[C@H](C)[C@H](CC[C@@H](O)C[C@@H](O)CC(=O)O)[C@H]21` ?
-- reply 207

###

# PROCEDURE SUMMARY: Pravastatin pharmacokinetics, 40 mg single oral dose, at baseline and at bulevirtide steady state
# RUN PARAMETERS: human, plasma, oral, 40 mg, Tmax, pravastatin 40 mg at bulevirtide steady state; N = 19
PROPERTY LABEL: Tmax

-- ask What Tmax value was documented for this compound, CC[C@H](C)C(=O)O[C@H]1C[C@H](O)C=C2C=C[C@H](C)[C@H](CC[C@@H](O)C[C@@H](O)CC(=O)O)[C@H]21 [pravastatin] ?
-- reply 1.22 h

###

# PROCEDURE SUMMARY: Pravastatin pharmacokinetics, 40 mg single oral dose, at baseline and at bulevirtide steady state
# RUN PARAMETERS: human, plasma, po, 40 mg, Cmax, pravastatin 40 mg single oral dose, baseline; N = 19; geometric mean (95% CI)
PROPERTY LABEL: Cmax (ng/mL)
Answers are plain numbers, in ng/mL.

-- ask What Cmax value was documented for this compound, `CC[C@H](C)C(=O)O[C@H]1C[C@H](O)C=C2C=C[C@H](C)[C@H](CC[C@@H](O)C[C@@H](O)CC(=O)O)[C@H]21` ?
-- reply 91.4
